Tested on: NOMO1
Assay: cell viability relative to DMSO control; higher = less cytotoxic
Conditions: RPMI 5 mM glucose + 10% dialyzed FBS; 48 h; 0.000781 µM
Quick reference for cell viability among some molecules
Number in %, nothing else.

For orientation, consider the following solved cases.
| Molecule | Unit Abbrev | cell viability |
| --- | --- | --- |
| CN(C)c1ccc(-c2nc3c(N4CCN(CC(=O)Nc5nccs5)CC4)c(Cl)cnc3[nH]2)cc1 | % | 108 |
| Clc1ccc(CCC(Cn2ccnc2)Sc2c(Cl)cccc2Cl)cc1 (stereo not drawn) | % | 87.5 |
| c1coc(CNc2ncnc3nc[nH]c23)c1 | % | 124 |
| COc1cc(N2CCN(C)CC2)ccc1Nc1nc(N)c(C(=O)c2c(Cl)cccc2Cl)s1 | % | 108 |
| Cc1ccc(C(=O)Nc2ccc([S+](=O)([O-])O)c3cc([S+](=O)([O-])O)cc([S+](=O)([O-])O)c23)cc1NC(=O)c1cccc(NC(=O)Nc2cccc(C(=O)Nc3cc(C(=O)Nc4ccc([S+](=O)([O-])O)c5cc([S+](=O)([O-])O)cc([S+](=O)([O-])O)c45)ccc3C)c2)c1 | % | 91.9 |

[ask] Please report the recorded cell viability for CCN(CC)CCCC(C)Nc1ccnc2cc(Cl)ccc12 (stereo not drawn) .
[reply] 124

---

Tested on: P12-Ichikawa
Test: cell viability relative to DMSO control; higher = less cytotoxic
Conditions: HPLM + 10% dialyzed FBS; 48 h; 46.1 µM
Measured Metric: cell viability (%)
Number in %, nothing else.

[ask] Please report the recorded cell viability for C=C1CCC2[C@](C)(CO)C(O)CC[C@]2(C)C1C/C=C1/C(=O)OCC1O (stereo not given in full) .
[reply] 115

---

System: SEM cells
Experiment: cell viability relative to DMSO control; higher = less cytotoxic
Conditions: RPMI 5 mM glucose + 10% FBS; 48 h; 0.00702 µM
Measured Metric: cell viability (%)
Number in %, nothing else.

| Compound | Unit Abbrev | Meas Value |
| --- | --- | --- |
| CCCCCN(C)CCC(O)(P(=O)([O-])O)P(=O)(O)O | % | 84.1 |
| OC(=O)CNC(=O)\C1=C(/O)C2=CC=CC=C2N(CC3=CC=CC=C3)C1=O | % | 117 |
| C[C@H](NC(=O)[C@@H](O)c1cc(F)cc(F)c1)C(=O)N[C@@H]1C(=O)N(C)c2ccccc2-c2ccccc21 | % | 120 |
| CC[C@H](C)C(=O)O[C@H]1C[C@@H](C)\C=C2\C=C/[C@H](C)[C@H](CC[C@@H]3C[C@@H](O)CC(=O)O3)[C@@H]12 | % | 92.5 |
| CN1CCN(CC1)C2=CC3=C([NH]C(=N3)C/4=C(\N)C5=C(F)C=CC=C5NC4=O)C=C2 | % | 50 |

[ask] Please report the recorded cell viability for OC1CCC(CC1)N2\C=N/C3=C(C2=N)C(=C([N]3CC4=CC=CC=C4)C5=CC=CC=C5)C6=CC=CC=C6 (configuration not stated) .
[reply] 131

[ask] What do we get for NC(=O)c1nnn(Cc2cc(Cl)c(C(=O)c3ccc(Cl)cc3)c(Cl)c2)c1N ?
[reply] 117

---

Test system: SEM cells
Assay: cell viability relative to DMSO control; higher = less cytotoxic
Conditions: HPLM + 10% dialyzed FBS; 48 h; 0.0211 µM
Measured Metric: cell viability (%)
Number in %, nothing else.

For orientation, consider the following solved cases.
| Molecule | Unit Abbrev | cell viability |
| --- | --- | --- |
| CN(C[C@@H]1COCCO1)[S+]([O-])(=O)NC2=CC3=C(C=C2)\C=C/C4=C(C=C(C=N4)C5=C[N](C)N=C5)C3=O | % | 86.4 |
| Cc1noc(N[S+](=O)([O-])c2ccc(N)cc2)c1C | % | 88.1 |
| Cc1n[nH]c2ccc(-c3cncc(OC[C@@H](N)Cc4ccccc4)c3)cc12 | % | 108 |
| CCN1\C=C(C(O)=O)/C(=O)C2=C1C(=C(N3CCNC(C)C3)C(=C2)F)F (centres undefined) | % | 117 |
| CC(C)C[C@H](CC(=O)O)C(=O)N[C@@H](Cc1c[nH]c2ccccc12)C(=O)N[C@@H](C)c1ccccc1 | % | 113 |

[ask] Please report the recorded cell viability for O=c1oc2cc(O)ccc2s1 .
[reply] 95.4

[ask] What do we get for C[C@@H](Cc1cc2c(c(C(N)=O)c1)N(CCCO)CC2)NCCOc1ccccc1OCC(F)(F)F ?
[reply] 82.9

[ask] What do we get for CC1Cc2ccccc2N1NC(=O)c1ccc(Cl)c([S+](N)(=O)[O-])c1 (centres undefined) ?
[reply] 106

[ask] What do we get for NC(=O)c1nnn(Cc2cc(Cl)c(C(=O)c3ccc(Cl)cc3)c(Cl)c2)c1N ?
[reply] 107

These data points were gathered from the supplement of paper PMC11451515.
